Just for reference, PubChem BioAssay (NCI) is where these values come from.

tested on: SN12C renal; experiment: NCI-60 one-dose screen, 48 h (100 = growth as untreated, 0 = no growth, -100 = all killed); conditions: 10 µM unless noted
About 83,000 compounds went through this panel and 20% of them were active in at least one assay; those are over-represented in the sample as a whole.
Could you mark each record satisfied if its growth falls strictly under 30%, and not satisfied if it equals or exceeds it?

                                   compound     grouplabel
0  S=C(Nc1ccc(OCc2nc3ccccc3[nH]2)cc1)NC1CCCCC1  not satisfied
1  COc1cc(-c2ccc(/C=N/NC(=O)c3[nH]c4ccc(Br)cc4c3-c3ccccc3)o2)cc(OC)c1OC  not satisfied
2  Cc1sc2c(c1C)C(c1ccc(Cl)cc1)=N[C@@H](CC(=O)NCCCCCNC(=O)COc1ccc(C3CCC(=O)NC3=O)cc1)c1nnc(C)n1-2 (stereo not given in full)      satisfied
3  COc1ccc(C(=O)/C=C/c2cccc(Cl)c2)cc1S(N)(=O)=O      satisfied

---

test system: NCI-H460 lung; assay: NCI-60 one-dose screen, 48 h (100 = growth as untreated, 0 = no growth, -100 = all killed); settings: 10 µM unless noted
The panel holds about 83,000 compounds, 20% with a hit somewhere; the sample as a whole holds those more often.
measure: growth (%)

>>> df
                                   compound  unitabbrev  assayvalue
0  O=C(/C=C/c1ccc(O)c(O)c1)NC1CCOC1O (stereo not given)           %         116
1  COc1cccc(COc2ccc(NC(=O)Nc3ccc(Cl)c(C(F)(F)F)c3)cc2)c1           %        17.5
2  COc1ccc(NC(=O)Nc2ccc(OCc3ccc(F)cc3)cc2)cc1           %          46
3  CN1CCN(c2ccc(C(=O)/C=C/c3cc(C(F)(F)F)cc(C(F)(F)F)c3)cc2)CC1           %       -40.8
4  CC(=O)Nc1cccc(Nc2nc(N[C@H]3CCCc4ccccc43)c3ccccc3n2)c1           %         104

---

test system: NCI-H460 lung; experiment: NCI-60 one-dose screen, 48 h (100 = growth as untreated, 0 = no growth, -100 = all killed); settings: 10 µM unless noted
The panel holds about 83,000 compounds, 20% with a hit somewhere; the sample as a whole holds those more often. The source made the active and inactive calls. The calls were made as follows: active = growth percent below 10; inactive = the rest.
Listed here are molecules together with their documented growth.
measure: growth

>>> print(df.to_string())
                                   molecule        assayvalue
0  O=C(c1ccc(OCCN2CCOCC2)cc1)C1[C@H](c2ccc(Cl)cc2)[C@@H](c2ccccc2)NC12C(=O)Nc1ccc(Br)cc12 (some centres undefined)    6.73% (active)
1     COc1ccc(-c2c(Nn3cnnn3)no[n+]2[O-])cc1  39.5% (inactive)
2  COc1cc2oc(-c3cccc(C(=O)Nc4ccc(Cl)cc4)c3)cc(=O)c2c(OCCNC(=O)[C@@H](N)CCC(=O)O)c1OC  63.2% (inactive)
3  COc1c(F)ccc(C(=O)Nc2ccc3nc(NC(=O)C4CCCN(S(=O)(=O)c5ccc(Br)c(F)c5)C4)sc3c2)c1F (centres undefined)  84.1% (inactive)
4  Cc1occc1C(=O)NN1C(=O)/C(=C/C=C/c2ccc([N+](=O)[O-])o2)SC1=S   -51.6% (active)
5  Cc1ccc(-c2nc(C#N)c(S(=O)(=O)N3CCN(S(=O)(=O)c4ccc(Cl)cc4)CC3)o2)cc1  99.6% (inactive)
6  O=C(O)c1ccc(-c2ccc(/C=N/NC(=O)c3[nH]c4ccc(Br)cc4c3-c3ccccc3)s2)cc1   0.163% (active)
7  CNC(=O)c1cccc(NC(=O)c2ccc3c(c2)nnn3/C(C#N)=C/c2ccccn2)c1  51.5% (inactive)
8  C#CCOc1ccc(/C=N/Nc2nc(-c3ccc(F)cc3)cs2)cc1OC  77.4% (inactive)

---

tested on: SF-268 CNS; assay: NCI-60 one-dose screen, 48 h (100 = growth as untreated, 0 = no growth, -100 = all killed); settings: 10 µM unless noted
Compounds without any hit were thinned out: in the full panel of roughly 83,000, 20% have a hit.
Parameter threshold = 50%. Response is 1 when growth meets or exceeds it, else 0.

                                   compound  grouplabel
0  CCCSc1nc(NCCc2c[nH]c3ccccc23)c(C#N)c(-c2ccc(F)cc2)n1           1
1  C=C1CC[C@@H]2[C@]3(C)COC(c4cn[nH]c4-c4ccc(F)cc4)O[C@@H]3CC[C@@]2(C)[C@@H]1C/C=C1/C(=O)OCC1O (stereo not given in full)           0
2  COc1ccc(C(=O)/C=C/c2ccccc2Br)cc1S(N)(=O)=O           0
3  COc1cc2c(c(OC)c1OC)C(=O)CC(c1cccc(NC(=O)c3cc(N)ccc3Cl)c1)O2 (stereo not given)           1
4  COc1ccc(C(=O)/C=C/c2ccc(Oc3nc(Nc4ccc(F)cc4)nc(N(C)C)n3)c(OC)c2)cc1           1

---

tested on: UACC-257 melanoma; assay: NCI-60 one-dose screen, 48 h (100 = growth as untreated, 0 = no growth, -100 = all killed); details: 10 µM unless noted
This is part of a sample that, as a whole, favours compounds with a hit. Of some 83,000 tested, about 20% had one in any assay.
Listed here are compounds together with their documented growth.
measure: growth (%)

                                   compound  measure  assayvalue
0  O=c1[nH]c2ccccc2cc1CSc1nccc(-c2ccc3ccccc3c2)n1   growth        99.3
1  COc1ccc(C(=O)/C=C/c2cccc3ccccc23)cc1S(N)(=O)=O   growth       -42.6
2  Cc1ccc([C@H]2C(C(=O)c3ccc(Cl)cc3)C3(N[C@@H]2c2ccccc2)C(=O)Nc2ccc(Br)cc23)cc1 (some centres undefined)   growth        71.6
3    Cc1cc2nc3c4ccccc4n(CC4=NCCN4)c3nc2cc1C   growth       -44.4
4  Brc1ccc(-c2n(Cc3ccc4ccccc4c3)c(-c3ccccc3)c(-c3ccccc3)[n+]2Cc2ccc3ccccc3c2)cc1   growth       -89.6
5  C=C1CCC2C3(C)COC(c4ccc(F)cc4)OC3CCC2(C)C1C/C=C1/C(=O)OCC1O (centres undefined)   growth       -62.6
6  CC1=C(C(=O)OCc2ccccc2)C(c2c(O)cc(O)cc2O)n2c(nc3ccccc32)N1 (centres undefined)   growth        47.9
7  COCOc1cc2c(=O)c(C)c(C(=O)N[C@@H](Cc3ccccc3)C(O)C(=O)NCc3ccccc3)oc2cc1OC (some centres undefined)   growth        30.2
8  Cc1cccc(Nc2nc3ccccc3nc2/C=C/c2ccc(F)cc2)c1   growth        94.5

---

Listed here are compounds together with their documented growth.
tested on: K-562 leukemia; assay: NCI-60 one-dose screen, 48 h (100 = growth as untreated, 0 = no growth, -100 = all killed); details: 10 µM unless noted
This is part of a sample that, as a whole, favours compounds with a hit. Of some 83,000 tested, about 20% had one in any assay.

compound	growth (%)
COc1ccc(/C=N/NC(=O)Cn2nc(Cc3ccc(OC)cc3)c3onc(C)c3c2=O)cc1	53.9
Cc1ccc(C2CC(c3ccc(S(=O)(=O)NCCNc4nc(Nc5ccc(F)cc5)nc(N(C)C)n4)cc3)=Nc3c(N)nc(N)nc3N2)cc1 (stereo unspecified)	8.57
Cc1c(C(=O)NNC(=O)c2ccc(Cl)cc2)nnn1-c1ccc(Cl)cc1	86.3
CCCCCCCS(=O)(=O)N1CCCC(C(=O)Nc2nc3ccc(NC(=O)c4ccc(F)c(OC)c4F)cc3s2)C1 (stereo unspecified)	61.8
Cn1cc(-c2cc3nc(-c4cn(C)c5ncc(Br)cc45)cc(N)n3n2)c2ccccc21	-30
CN(C)CCOc1ccc(C(=O)C2[C@H](c3ccc(Cl)cc3)[C@@H](c3ccccc3)NC23C(=O)Nc2ccccc23)cc1 (stereo partly specified)	-51.5
Cc1c(C(=O)NNC(=O)Nc2ccc(Cl)cc2)nnn1-c1ccc(Br)cc1	92.2
O=C(/C=C/c1ccc(-c2ccccc2)cc1)c1nc2ccccc2n1Cc1ccc(Br)cc1	36
O=C(NN1C(=O)/C(=C/C=C/c2ccc([N+](=O)[O-])o2)SC1=S)c1cccc(O)c1	6.17
Cc1ccc(-c2nc(C#N)c(S(=O)(=O)N3CCN(S(=O)(=O)c4ccccc4)CC3)o2)cc1	-28.1
Cc1cccc(NC(=O)CN2CCN(c3ncnc4c3cnn4-c3ccccc3)CC2)c1	67.5
CC(C)c1ccc2c(N)c(C(=O)Nc3ccc(C(F)(F)F)cn3)sc2n1	33.1
COc1ccc(C(=O)/C=C/c2ccc(OCc3ccccc3)c(OC)c2)cc1OC	10.5
CCOC(=O)C(N=Nc1ccc(S(=O)(=O)N=C(N)N)cc1)C(C)=O (stereo unspecified)	94.1
COc1ccc2[nH]c(O)c(N=NC(=O)COc3ccc(NC(=O)Nc4ccccc4)cc3)c2c1	46.3
C=C1CC[C@@H]2[C@]3(C)COC(c4cn(-c5ccccc5)nc4-c4cccc([N+](=O)[O-])c4)O[C@@H]3CC[C@@]2(C)[C@@H]1C/C=C1/C(=O)OC[C@H]1O (stereo partly specified)	-12.7
COc1cc(-c2nc3cc(Cl)c(Cl)cc3[nH]2)ccc1OCc1nnc(-c2cccs2)o1	54
CNC(=O)c1cc(Oc2ccc3nc(NC(=O)Nc4cccc(OC(F)(F)F)c4)sc3c2)ccn1	47.1
CCN(CC)CCOc1ccc(Nc2ncc3cc(-c4ccc(O)c(C#N)c4)c(=O)n(C)c3n2)cc1	-47.5
CCCCCCCCOc1cccc(S(=O)(=O)Nc2ccc(C)cc2C(=O)O)c1	83.8
O=C(NN1C(=O)/C(=C/C=C/c2ccc([N+](=O)[O-])o2)SC1=S)c1ccc(Cl)cc1	3.88
Cc1ccc(C(=O)CSc2nc3ccc(C)cc3c(=O)n2-c2ccc(F)cc2)cc1	92.7
COc1ccc2c(c1)c(/C=N/Nc1ccc3ccccc3n1)cn2C	-40.1
CCCCCCCCc1ccc(C(=O)Nc2cccc(P(=O)(O)O)c2)cc1	97.6
Clc1cccc(Cl)c1/C=C/c1cc(/C=C/c2ccc(Br)cc2)c2ccccc2n1	99.5
COc1cc2oc(-c3cccc(C(=O)Nc4cccc([N+](=O)[O-])c4)c3)cc(=O)c2c(OC)c1OC	69.2
CCCSc1nc(Nc2ccc(S(N)(=O)=O)cc2)c(C#N)c(-c2cc(OC)c(OC)c(OC)c2)n1	2.89
Cc1ccccc1[C@H]1C(C(=O)c2ccc(Cl)cc2)C2(N[C@@H]1c1ccccc1)C(=O)Nc1ccc(Br)cc12 (stereo partly specified)	1.41
Cc1ccccc1[C@H]1C(C(=O)c2ccc(Cl)cc2)C2(N[C@@H]1c1ccccc1)C(=O)Nc1ccccc12 (stereo partly specified)	-21
O=C(C1=CNC(=S)NC1c1ccc(O)cc1)c1cc2ccccc2oc1=O (stereo unspecified)	90.9
O=C(N=Nc1c(O)[nH]c2ccc(Cl)cc12)c1ccc2nc(-c3ccccc3)[nH]c2c1	29.3
CC(C)Sc1nc(NCCc2c[nH]c3ccccc23)c(C#N)c(-c2ccc(F)cc2)n1	9.31
COc1cc(-c2nc3ccc(C)cc3[nH]2)ccc1OCc1nnc(-c2ccc(Br)cc2)o1	3.01
CCOC(=O)C1=C(N)N(c2ccccc2)C2=C(C(=O)CC(C)(C)C2)C1c1ccc([N+](=O)[O-])cc1 (stereo unspecified)	83.7
COc1ccc(-c2nc3cc(C)ccc3n2CC(=O)N=Nc2c(O)[nH]c3ccccc23)cc1	4.42
O=C(CCN1C(=O)/C(=C/c2ccc(F)cc2)SC1=S)N1CCOCC1	43
